Target: SP receptor (Rattus norvegicus)
Construct: from tissue; host or cells: rat submaxillary gland (crude tissue suspension)
Sequence (P14600 whole entry): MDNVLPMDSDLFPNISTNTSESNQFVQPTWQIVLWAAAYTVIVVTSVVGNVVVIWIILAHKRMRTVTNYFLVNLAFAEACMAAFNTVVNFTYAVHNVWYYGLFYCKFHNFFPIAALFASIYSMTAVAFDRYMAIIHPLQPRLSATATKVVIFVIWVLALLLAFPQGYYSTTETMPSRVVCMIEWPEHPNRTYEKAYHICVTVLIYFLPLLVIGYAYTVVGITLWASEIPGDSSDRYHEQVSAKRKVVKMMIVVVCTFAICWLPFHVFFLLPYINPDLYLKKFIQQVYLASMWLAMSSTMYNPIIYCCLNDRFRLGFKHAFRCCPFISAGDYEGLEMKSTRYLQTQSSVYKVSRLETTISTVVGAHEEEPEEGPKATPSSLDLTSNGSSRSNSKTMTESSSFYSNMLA
Assay: 3H-SP binding test, rat submaxillary gland tissue
Settings: 30 μM test compound; rat submaxillary gland tissue (Examples 1-34); read-out: 3H-SP Binding % Inhibition
Non-standard residues stand in square brackets, D forms with d. Residues, ends and D or L forms follow the SMILES beside them. Gly(NCH2CH2Ph) = O=C(O)CNCCc1ccccc1
MEASURED ENDPOINT: inhibition at 30 µM (%)

1: CSCC[C@H](NC(=O)[C@H](CC(C)C)NC(=O)CNC(=O)[C@H](Cc1ccccc1)NC(=O)[C@@H](Cc1ccccc1)NC(=O)[C@@H]1CCCN1)C(N)=O [Example 9, HPro-DPhe-Phe-Gly-Leu-MetNH2] (H-P[dF]FGLM-NH2)
2: CSCC[C@H](NC(=O)[C@H](CC(C)C)NC(=O)[C@@H](Cc1ccccc1)NC(=O)CN(CCc1ccccc1)C(=O)[C@@H](Cc1ccccc1)NC(=O)[C@@H]1CCCN1)C(N)=O [Example 32, HPro-DPhe-Pgl-DPhe-Leu-MetNH2] (H-P[dF][Gly(NCH2CH2Ph)][dF]LM-NH2)
Returns: the argument ( 1 or 2 ) having the larger inhibition at 30 µM. Answer = label. 2
